Record form. Attribute: Ki. Fill in for each entry.
- system_under_test: human adenosine A2a receptor (Homo sapiens)
- test_summary: Adenosine A2a Receptor Functional Assay (A2AGAL2)
- condition_label: CHO-K1 cells, cAMP inducible beta-galactosidase reporter, 15 nM NECA agonist challenge
Where a name gives a salt, the structure may show the parent alone.
Give bare numbers, in nM.

Example cases with answers are listed next.
* Nc1nc(-c2ccc(C3CC3)o2)nc2sc(C(=O)NCc3cccnc3)cc12 | 1550
* Cc1cc(-c2nc(N)c3cc(C(=O)NCc4cccnc4)sc3n2)no1 | 310
* Cc1csc(-c2nc(N)c3cc(C(=O)N4CCN(C(C)(C)C)CC4)sc3n2)n1 | 367

For every listed record, write down its Ki.
1. C[C@@H]1CN(C(=O)c2cc3c(N)nc(-c4cccc(C#N)c4)nc3s2)C[C@H](C)O1
2. Cc1csc(-c2nc(N)c3cc(C(=O)NC4CCOCC4)sc3n2)n1
3. Cc1csc(-c2nc(N)c3cc(C(=O)N4CCOCC4)sc3n2)n1

Output:
[184, 21.9, 24.9]

# per-item lookup of Ki; items listed below
1. Nc1nc(-c2ncco2)nc2sc(C(=O)NCc3ccccn3)cc12
2. Cc1csc(-c2nc(N)c3cc(C(=O)NCc4ccc(Cl)nc4)sc3n2)n1 [Example 20, hydrochloride]
3. Cc1csc(-c2nc(N)c3cc(C(=O)N4CCN(c5ccncc5)CC4)sc3n2)n1

Output:
1. 137
2. 109
3. 222

Quick batch: Ki for everything below.
1. Nc1nc(-c2ccc(C3CC3)o2)nc2sc(C(=O)N3CCOCC3)cc12
2. N#Cc1cccc(-c2nc(N)c3cc(C(=O)NCc4ccccn4)sc3n2)c1
3. Nc1nc(-c2ncco2)nc2sc(C(=O)NCCN3CCOCC3)cc12
4. N#Cc1cccc(-c2nc(N)c3cc(C(=O)NCCc4cccnc4)sc3n2)c1

Output:
1. 236
2. 29
3. 287
4. 115

Kindly give each listed record's Ki.
1. Cc1csc(-c2nc(N)c3cc(C(=O)N4CCN(Cc5ccccn5)CC4)sc3n2)n1
2. Cc1csc(-c2nc(N)c3cc(C(=O)NCc4cccnc4)sc3n2)n1
3. Nc1nc(-c2nc(C(F)(F)F)cs2)nc2sc(C(=O)N3CCOCC3)cc12
4. Cc1csc(-c2nc(N)c3cc(C(=O)N4CCN(c5nccs5)CC4)sc3n2)n1
5. CC(C)c1ccc(-c2nc(N)c3cc(C(=O)N4CCOCC4)sc3n2)o1

Output:
160
40.3
92.9
81.9
236

* * *

- system_under_test: human adenosine A1 receptor (Homo sapiens)
- test_summary: Adenosine A1 Receptor Functional Assay (A1GAL2)
- condition_label: CHO-K1 cells, cAMP inducible beta-galactosidase reporter, 4nM r-PIA/1 uM Forskolin agonist challenge
Counter-ions that a name gives are not always drawn.
recorded_metric: log10 of Ki (log10 of the value in nM)
Values below are the log10 of the recorded Ki, with nM as the unit.

* N#Cc1cccc(-c2nc(N)c3cc(C(=O)NCc4cccnc4)sc3n2)c1 | 1.34
* N#Cc1cccc(-c2nc(N)c3cc(C(=O)NCCc4cccnc4)sc3n2)c1 | 2.67
* Cc1cc(-c2nc(N)c3cc(C(=O)NCc4cccnc4)sc3n2)no1 | 1.43

The following compounds each have a reported value; give each one's log10 of Ki.
1. Cc1csc(-c2nc(N)c3cc(C(=O)N4CCN(c5nccs5)CC4)sc3n2)n1
2. Cc1csc(-c2nc(N)c3cc(C(=O)NCc4cccnc4)sc3n2)n1
3. Cc1csc(-c2nc(N)c3cc(C(=O)NCc4ccc(Cl)nc4)sc3n2)n1 [Example 20, hydrochloride]

Output:
1. 2.99
2. 2.39
3. 2.71

* * *

- system_under_test: human A2a adenosine receptor (Homo sapiens, UniProt P29274)
- Construct: purchased PerkinElmer RB-HA2a; host or cells: HEK293 plasma membrane
- Sequence (P29274 whole entry): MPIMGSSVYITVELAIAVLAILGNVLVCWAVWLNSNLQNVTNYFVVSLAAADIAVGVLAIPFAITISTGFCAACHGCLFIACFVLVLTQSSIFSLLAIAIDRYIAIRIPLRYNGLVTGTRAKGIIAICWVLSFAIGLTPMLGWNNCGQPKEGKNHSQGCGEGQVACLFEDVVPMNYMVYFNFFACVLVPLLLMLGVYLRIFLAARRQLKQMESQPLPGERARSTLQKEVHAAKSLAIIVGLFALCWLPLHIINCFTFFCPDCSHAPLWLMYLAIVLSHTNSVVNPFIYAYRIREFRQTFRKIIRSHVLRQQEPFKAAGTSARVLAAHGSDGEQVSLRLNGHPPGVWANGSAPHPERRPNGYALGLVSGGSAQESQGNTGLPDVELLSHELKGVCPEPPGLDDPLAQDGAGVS
- test_summary: Ligand Binding Assay for Adenosine A2a Receptor (A2A-B)
- condition_label: HEK293 cell plasma membrane, radioligand [3H]CGS21680
Task for the reader: assign each of the following compounds its reported pKi.
Give bare numbers, as −log10 of the molar value.

• Cc1csc(-c2nc(N)c3cc(C(=O)N4CCOCC4)sc3n2)n1 = 7.34

Would you be so kind as to report pKi for each listed record?
1. N#Cc1cccc(-c2nc(N)c3cc(C(=O)N4CCOCC4)sc3n2)c1
2. Cc1ccc(-c2nc(N)c3cc(C(=O)N4CCOCC4)sc3n2)o1

Output:
7.66
7.92

* * *

Would you kindly list Ki for each of these compounds?
- system_under_test: human adenosine A2a receptor (Homo sapiens, UniProt P29274)
- Sequence (P29274 whole entry): as above
- test_summary: Adenosine A2a Receptor Functional Assay (A2AGAL2)
- condition_label: CHO-K1 cells, cAMP inducible beta-galactosidase reporter, 15 nM NECA agonist challenge
Structures can show the parent of a compound that is named as a salt.
One number for each entry, in nM.

As a guide, the following entries are already answered.
- N#Cc1cccc(-c2nc(N)c3cc(C(=O)NCc4cccnc4)sc3n2)c1: 14.2
- CCN1CCN(C(=O)c2cc3c(N)nc(-c4nc(C)cs4)nc3s2)CC1 [Example 18, hydrochloride]: 195
- CC(C)(C)N1CCN(C(=O)c2cc3c(N)nc(-c4ccc(C5CC5)o4)nc3s2)CC1: 1240

Input: I have this compound here, `Nc1nc(-c2ncco2)nc2sc(C(=O)N3CCOCC3)cc12` , and I need its recorded Ki.
Output: 361

* * *

I'd be grateful if you could share measured Ki for these entries.
- system_under_test: human adenosine A1 receptor (Homo sapiens)
- Construct: expressed in transfected cells; host or cells: CHO-K1
- test_summary: Adenosine A1 Receptor Functional Assay (A1GAL2)
- Assay type: cell-based
- condition_label: CHO-K1 cells, cAMP inducible beta-galactosidase reporter, 4nM r-PIA/1 uM Forskolin agonist challenge

Below: 3 compounds and their reported Ki.
- Cc1csc(-c2nc(N)c3cc(C(=O)NC4CCOCC4)sc3n2)n1: 0.443 µM
- Cc1csc(-c2nc(N)c3cc(C(=O)NCCc4cccnc4)sc3n2)n1: 0.53 µM
- Cc1csc(-c2nc(N)c3cc(C(=O)N4CCN(c5ccncc5)CC4)sc3n2)n1: > 1.07 µM

Input: # get_value(readout='Ki', item= `CC(C)(C)N1CCN(C(=O)c2cc3c(N)nc(-c4ccc(C5CC5)o4)nc3s2)CC1` )
Output: > 1.04 µM

* * *

- system_under_test: human adenosine A2a receptor (Homo sapiens, UniProt P29274)
- Construct: expressed in transfected cells; host or cells: CHO-K1
- test_summary: Adenosine A2a Receptor Functional Assay (A2AGAL2)
- Format: cell-based
- condition_label: CHO-K1 cells, cAMP inducible beta-galactosidase reporter, 15 nM NECA agonist challenge
pKi: −log10 of the molar value.
Classify by measured pKi: Met if it is equal to or exceeds 7, Not met if it is smaller.

Some entries whose results are on file:
- Cc1csc(-c2nc(N)c3cc(C(=O)NCCN4CCS(=O)(=O)CC4)sc3n2)n1: Not met
- N#Cc1cccc(-c2nc(N)c3cc(C(=O)N4CCOCC4)sc3n2)c1: Met
- Cc1cc(-c2nc(N)c3cc(C(=O)N4CCOCC4)sc3n2)no1: Not met
- Cc1ccc(-c2nc(N)c3cc(C(=O)N4CCOCC4)sc3n2)o1: Met
- Cc1csc(-c2nc(N)c3cc(C(=O)NCCc4cccnc4)sc3n2)n1: Met

Next:
Input: Threshold query (pKi >= 7) on `N#Cc1cccc(-c2nc(N)c3cc(C(=O)NCCN4CCOCC4)sc3n2)c1`
Output: Met

* * *

- system_under_test: human adenosine A1 receptor (Homo sapiens)
- Sequence (P30542 1-326): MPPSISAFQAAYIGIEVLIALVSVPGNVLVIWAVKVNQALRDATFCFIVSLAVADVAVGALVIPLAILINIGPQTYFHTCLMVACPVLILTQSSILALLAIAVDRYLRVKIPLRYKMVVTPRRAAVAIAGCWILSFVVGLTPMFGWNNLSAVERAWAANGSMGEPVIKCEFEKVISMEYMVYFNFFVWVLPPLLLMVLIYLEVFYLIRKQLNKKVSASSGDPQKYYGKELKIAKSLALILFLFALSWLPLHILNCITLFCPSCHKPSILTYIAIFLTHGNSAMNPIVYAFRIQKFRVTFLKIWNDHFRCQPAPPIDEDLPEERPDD
- test_summary: Adenosine A1 Receptor Functional Assay (A1GAL2)
- condition_label: CHO-K1 cells, cAMP inducible beta-galactosidase reporter, 4nM r-PIA/1 uM Forskolin agonist challenge
Structures can show the parent of a compound that is named as a salt.
Please provide measured Ki for the entries that follow.

Example entries begin here.
* Nc1nc(-c2ccc(C3CC3)o2)nc2sc(C(=O)NCc3cccnc3)cc12 | > 610 nM
* Nc1nc(-c2nc(C(F)(F)F)cs2)nc2sc(C(=O)N3CCOCC3)cc12 | > 1310 nM

I'm hoping you can list Ki for every compound here, please.
1. CCN1CCN(C(=O)c2cc3c(N)nc(-c4nc(C)cs4)nc3s2)CC1 [Example 18, hydrochloride]
2. Cc1csc(-c2nc(N)c3cc(C(=O)N4CCN(C(C)(C)C)CC4)sc3n2)n1

Output:
1: > 948 nM; 2: > 1310 nM

The measured values listed here are drawn from patent US20100093714A1.
